assay: Binding affinity to human full-length N-terminal His6-tagged prephosphorylated Bcl2 R106A/R109A mutant expressed in Escherichia coli S12 extract by isothermal titration calorimetry
observation.type: Kd (nM)
Give bare numbers, in nM.

CC1(C)CCC(c2ccc(Cl)cc2)=C(CN2CCN(c3ccc(C(=O)NS(=O)(=O)c4ccc(N[C@H](CCN5CCOCC5)CSc5ccccc5)c(S(=O)(=O)C(F)(F)F)c4)cc3)CC2)C1 [NAVITOCLAX] ... 30.6

Next up:
Q: Look at this compound and give its reported Kd. CC1(C)CCC(CN2CCN(c3ccc(C(=O)NS(=O)(=O)c4ccc(NCC5CCOCC5)c([N+](=O)[O-])c4)c(Oc4cnc5[nH]ccc5c4)c3)CC2)=C(c2ccc(Cl)cc2)C1 [VENETOCLAX]
A: 5.5

###

Task for the reader: assign each of the following compounds its reported pEC50.
test system: MCF7; assay: Induction of apoptosis in human MCF7 cells measured after 48 hrs by FITC-Annexin V/PS staining based; assay type: functional, cell-based; settings: MCF7, 48 h
Give bare numbers, as −log10 of the molar value.

N#CC1=C(NCCC(=O)NCc2ccccc2)c2ccc(Sc3ccc(Br)cc3)c3cccc(c23)C1=O ... 4.73
CC1(C)CCC(CN2CCN(c3ccc(C(=O)NS(=O)(=O)c4ccc(NCC5CCOCC5)c([N+](=O)[O-])c4)c(Oc4cnc5[nH]ccc5c4)c3)CC2)=C(c2ccc(Cl)cc2)C1 [VENETOCLAX] ... 5.87
N#CC1=C(NCCC(=O)NCc2ccc(C(=O)O)cc2)c2ccc(Sc3ccc(Br)cc3)c3cccc(c23)C1=O ... 5.26

# input for lookup
Q: What pEC50 value was documented for this compound, `CCCCNC1=C(C#N)C(=O)c2cccc3c(Sc4ccc(Br)cc4)ccc1c23` ?
A: 5.51

###

test system: OCI-AML-3; test: Induction of apoptosis in human OCI-AML-3 cells measured after 48 hrs by FITC-Annexin V/PS staining based; type: functional, cell-based; conditions: OCI-AML-3, 48 h
observation.type: pEC50
Give bare numbers, as −log10 of the molar value.

Hey, can you go through the list below and give me pEC50 for every item?
1. CCCCNC1=C(C#N)C(=O)c2cccc3c(Sc4ccc(Br)cc4)ccc1c23
2. CC1(C)CCC(CN2CCN(c3ccc(C(=O)NS(=O)(=O)c4ccc(NCC5CCOCC5)c([N+](=O)[O-])c4)c(Oc4cnc5[nH]ccc5c4)c3)CC2)=C(c2ccc(Cl)cc2)C1
3. N#CC1=C(NCCC(=O)NCc2ccccc2)c2ccc(Sc3ccc(Br)cc3)c3cccc(c23)C1=O
4. N#CC1=C(NCCC(=O)NCc2ccc(C(=O)O)cc2)c2ccc(Sc3ccc(Br)cc3)c3cccc(c23)C1=O

A:
[4.81, 5.17, 4.65, 5.40]

###

experiment: Binding affinity to human full-length N-terminal His6-tagged Bcl2 R106A/R109A mutant expressed in Escherichia coli S12 extract by isothermal titration calorimetry
observation.type: pKd
Answers are plain numbers, as −log10 of the molar value.

CC1(C)CCC(CN2CCN(c3ccc(C(=O)NS(=O)(=O)c4ccc(NCC5CCOCC5)c([N+](=O)[O-])c4)c(Oc4cnc5[nH]ccc5c4)c3)CC2)=C(c2ccc(Cl)cc2)C1 [VENETOCLAX] ... 8.35

Now look at this one.
Q: Query: pKd; subject: CC1(C)CCC(c2ccc(Cl)cc2)=C(CN2CCN(c3ccc(C(=O)NS(=O)(=O)c4ccc(N[C@H](CCN5CCOCC5)CSc5ccccc5)c(S(=O)(=O)C(F)(F)F)c4)cc3)CC2)C1 [NAVITOCLAX]
A: 7.56
